- assayed target: NA of A/Sydney/5/97 (H3N2) (Influenza A virus)
- assay notes: Neuraminidase inhibition assay (fluorimetric, MUNANA)
- Assay type: biochemical, influenza A virus A/Sydney/5/97 (H3N2)
- stated conditions: NA from A/Sydney/5/97 (H3N2); 37 °C, 40 min, pH 6.5; read-out: IC50, inhibition of NA, A/Sydney/5/97(H3N2) (converted)
observable: IC50

molecule	observable	reported measurement
O=C(Oc1cc(O)c2c(c1)O[C@H](c1cc(O)c(O)c(O)c1)CC2)c1cc(O)c(O)c(O)c1 [Compound 2]	IC50	> 90.4 µM
O=C(Oc1cc(O)c2c(c1)O[C@H](c1cc(O)c(OC(=O)c3cc(O)c(O)c(O)c3)c(O)c1)CC2)c1cc(O)c(O)c(O)c1 [Compound 4, (−)-7,4'-di-O-galloyltricetiflavan]	IC50	> 67.3 µM
O=C(Oc1cc(O)c2c(c1)OC(c1cc(O)c(O)c(O)c1)C(O)C2)c1cc(O)c(O)c(O)c1 (single isomer, unassigned; (+)) [Compound 3]	IC50	> 87.3 µM
CC1(C)O[C@@H]2Cc3c(O)cc(OC(=O)c4cc(O)c(O)c(O)c4)cc3O[C@@H]2c2cc(O)c(O)c(O)c21 [Compound 1, (2R,3R)-7-O-galloylplumbocatechin A]	IC50	64.7 µM

Numbers sourced from paper PMC6271231.
